Below, each of the variants is paired with its reported self-cleavage kobs at 160 uM GlcN6P value.
B1: glmS ribozyme (parent)
chain: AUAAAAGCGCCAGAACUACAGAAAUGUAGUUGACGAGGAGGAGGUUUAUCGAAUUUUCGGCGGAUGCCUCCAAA

Variants of: B1
Experiment: self-cleavage kobs at 160 uM GlcN6P; higher = faster cleavage; RNA array
Conditions: with glucosamine-6-phosphate
Fewer inactive variants are shown than the library holds.

These solved cases illustrate the format of a correct answer.
Reported self-cleavage kobs at 160 uM GlcN6P for U30A G37A was 3.75e-05 s⁻¹

Reported self-cleavage kobs at 160 uM GlcN6P for G7C A24U U46A C68U was < 1e-05 s⁻¹

Reported self-cleavage kobs at 160 uM GlcN6P for G29A A48G was < 1e-05 s⁻¹

Reported self-cleavage kobs at 160 uM GlcN6P for A36C U65C was < 1e-05 s⁻¹

Reported self-cleavage kobs at 160 uM GlcN6P for G59U C61A was < 1e-05 s⁻¹

Reported self-cleavage kobs at 160 uM GlcN6P for A15G U30G was 0.000476 s⁻¹

Others:
Reported self-cleavage kobs at 160 uM GlcN6P for A14U U54G was 0.000382 s⁻¹

Reported self-cleavage kobs at 160 uM GlcN6P for G40C A64G was 4.29e-05 s⁻¹

Reported self-cleavage kobs at 160 uM GlcN6P for G41A A52G G59A was < 1e-05 s⁻¹

Reported self-cleavage kobs at 160 uM GlcN6P for A36U U45C was < 1e-05 s⁻¹

Reported self-cleavage kobs at 160 uM GlcN6P for U47G G60U was < 1e-05 s⁻¹

Hello, the source for this data is the supplement of paper PMC7125110, in case you need it.
